Values compiled from patent US11834446B2.

# System: Wnt reporter (TCF/LEF1 promoter) in HEK STF293 cells
# test: HEK STF293 Wnt reporter (luciferase) assay
# Assay type: cell-based
# run_conditions: Homo sapiens, STF/293, Wnt3a-conditioned media, Steady Glo normalized to Cell Titer
pEC50: −log10 of the molar value.
Listing: pEC50 of selected compounds

>>> df
                                   compound                       experimental_system  readout_label  endpoint_result
0  COc1cc2nc(NC(=O)c3ccc(S(=O)(=O)N4CCc5ccccc54)cc3)sc2cc1OC  Wnt reporter (TCF/LEF1 promoter) in HEK STF293 cells          pEC50           < 7.00
1  O=C(Nc1ccc(F)cc1)c1ccc(S(=O)(=O)N2CCc3ccccc32)cc1  Wnt reporter (TCF/LEF1 promoter) in HEK STF293 cells          pEC50           < 7.00

[ask] Look up pEC50 for this compound: "Cc1nn(Cc2ccccc2)c(C)c1NC(=O)c1cc(-c2ccc(Br)cc2)on1"
[reply] ≥ 7.00

[ask] Look up pEC50 for this compound: "Cc1sc(NC(=O)c2ccc(S(=O)(=O)N3CCc4ccccc43)cc2)nc1-c1ccccc1"
[reply] < 7.00

[ask] Look up pEC50 for this compound: "Cc1ccc(C)c(NS(=O)(=O)c2ccc(NC(=O)c3n[nH]c4c3CCc3ccccc3-4)cc2)c1"
[reply] < 7.00

[ask] Look up pEC50 for this compound: "O=C(Nc1nc(-c2ccccn2)cs1)c1ccc(S(=O)(=O)N2CCCc3ccccc32)cc1"
[reply] ≥ 7.00
